Tgt: Voltage-gated inwardly rectifying potassium channel KCNH2 (Homo sapiens) (UniProt Q12809)
Sequence (Q12809 whole entry, looked up): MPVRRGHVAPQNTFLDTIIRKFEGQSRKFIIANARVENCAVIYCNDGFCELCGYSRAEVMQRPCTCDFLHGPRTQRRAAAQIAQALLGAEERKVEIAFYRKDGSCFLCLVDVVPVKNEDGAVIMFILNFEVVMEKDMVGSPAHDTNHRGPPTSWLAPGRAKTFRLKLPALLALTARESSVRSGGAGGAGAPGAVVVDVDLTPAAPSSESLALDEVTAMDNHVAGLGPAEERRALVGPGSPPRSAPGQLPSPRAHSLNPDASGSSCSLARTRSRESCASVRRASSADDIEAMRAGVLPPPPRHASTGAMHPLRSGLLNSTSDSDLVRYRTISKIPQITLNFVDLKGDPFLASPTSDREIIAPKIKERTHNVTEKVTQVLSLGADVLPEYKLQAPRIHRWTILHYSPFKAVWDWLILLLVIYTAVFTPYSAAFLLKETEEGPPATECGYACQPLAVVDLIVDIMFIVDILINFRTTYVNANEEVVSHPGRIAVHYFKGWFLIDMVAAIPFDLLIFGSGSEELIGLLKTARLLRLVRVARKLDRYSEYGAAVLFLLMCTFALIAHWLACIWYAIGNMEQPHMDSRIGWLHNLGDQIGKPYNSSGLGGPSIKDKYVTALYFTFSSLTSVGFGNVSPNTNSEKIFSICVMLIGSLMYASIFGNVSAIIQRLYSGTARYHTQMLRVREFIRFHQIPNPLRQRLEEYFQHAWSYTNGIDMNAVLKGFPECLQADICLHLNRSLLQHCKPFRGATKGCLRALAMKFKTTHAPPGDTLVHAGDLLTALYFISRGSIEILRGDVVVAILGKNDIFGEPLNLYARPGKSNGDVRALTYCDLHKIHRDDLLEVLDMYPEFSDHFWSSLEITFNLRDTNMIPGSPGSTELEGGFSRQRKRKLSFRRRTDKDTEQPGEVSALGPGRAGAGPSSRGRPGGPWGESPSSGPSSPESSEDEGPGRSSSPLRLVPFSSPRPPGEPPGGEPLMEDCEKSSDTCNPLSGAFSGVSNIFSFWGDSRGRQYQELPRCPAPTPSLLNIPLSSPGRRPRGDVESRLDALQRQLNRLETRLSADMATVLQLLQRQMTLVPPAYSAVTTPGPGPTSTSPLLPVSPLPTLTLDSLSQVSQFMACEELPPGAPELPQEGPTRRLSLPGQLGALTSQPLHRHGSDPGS
Test Summary: hERG protection against dofetilide inhibition, confirmation, cell-based, thallium flux, duplicate retest, dofetilide IC70 (AID 1835)
Assay Conditions: hERG cell line, FluxOR thallium flux, dofetilide-blocked; at 10 µM; active compounds read high
Among all 2,400 compounds or so, about 750 (31%) were called active. This is one part of the list.
Recorded activity increase over dofetilide control, less the hit threshold values for a group of molecules are listed next.
Hi! Could you send only the number? It should be in %, unit omitted.

Below, each entry is followed by its recorded activity increase over dofetilide control, less the hit threshold result.
Molecule	Tgt	Measured
CCOc1ccc(S(=O)(=O)Nc2nc3ccccc3nc2-n2ccc(=NC(=O)c3cccs3)cc2)cc1	Voltage-gated inwardly rectifying potassium channel KCNH2 (Homo sapiens) (UniProt Q12809)	-6
Cc1cc(NC(=O)CSc2nc(C3CC3)nc3sc(C)c(C)c23)no1	Voltage-gated inwardly rectifying potassium channel KCNH2 (Homo sapiens) (UniProt Q12809)	26
CCCc1nc(SCC(=O)Nc2cc(C)on2)c2ccccc2n1	Voltage-gated inwardly rectifying potassium channel KCNH2 (Homo sapiens) (UniProt Q12809)	-10
CSc1ccc(S(=O)(=O)N2CCC(C(=O)Nc3ccccc3C(F)(F)F)CC2)cc1	Voltage-gated inwardly rectifying potassium channel KCNH2 (Homo sapiens) (UniProt Q12809)	-17
COc1ccc(C(=O)NC2CC3CCCC(C2)N3Cc2ccccc2)cc1 (centres undefined)	Voltage-gated inwardly rectifying potassium channel KCNH2 (Homo sapiens) (UniProt Q12809)	-11
COc1ccc(C(=O)CC(=O)C(=O)Nc2ccccc2C(F)(F)F)cc1	Voltage-gated inwardly rectifying potassium channel KCNH2 (Homo sapiens) (UniProt Q12809)	13

Give the reported activity increase over dofetilide control, less the hit threshold for this molecule. CCOC(=O)C1C(c2ccccc2)C(C(=O)OCC)C1c1ccccc1 (centres undefined)
-6

# return recorded activity increase over dofetilide control, less the hit threshold for entry `COc1ccccc1C(=O)NC(=S)NNC(=O)c1sc2ccccc2c1Cl`
-18

Please list activity increase over dofetilide control, less the hit threshold recorded for the molecule `COc1ccc(C(=O)CC(=O)C(=O)Nc2ccccc2OC)cc1`
2

Answer with the recorded activity increase over dofetilide control, less the hit threshold of `CNc1nc(N)nc(OC(C(F)(F)F)C(F)(F)F)n1` only.
-24

Supply activity increase over dofetilide control, less the hit threshold value. Item: `COC(=O)Cn1c(=NC(=O)c2sc3ccccc3c2Cl)sc2cc(S(N)(=O)=O)ccc21`
-2
